Where do the numbers come from? From the supplement of paper PMC11780869.

system: Bacillus subtilis; experiment: cleaved RNA product abundance (RNA/gDNA barcode ratio) relative to median wild-type variant (ratio to wild type); higher = more accumulation of the downstream cleavage product; conditions: experiment (reporter, strain, medium): exp 8a: truncated aprE reporter, strain BJT201 with 2% xylose (RNase J1 expressed); cleavage site: glnRA (positions -5 to +31 mutated)
Lab note: compare cleaved RNA product abundance against 0.3. Equal or greater, write Y. Smaller, write N.

{"SEQUENCE ENTRY": "CGACATGTCCCGCTTCTTTCATTATTCTGTTAGCAACTGTTTTGCTATATACAGTTACCTTTTAAGAGGAGGAAT", "LABEL VALUE": "Y"}
{"SEQUENCE ENTRY": "CGACATGTCCCGCTTCTTTCATTAATCCGTTAGCATCTGTTTTGCTATATACCTTTACCTTTTAAGAGGAGGAAT", "LABEL VALUE": "N"}
{"SEQUENCE ENTRY": "CGACATGTCCCGCTTCTTTCATTAATCCGTTAGCAACTGTATTTCTATATACATTTACCTTTTAAGAGGAGGAAT", "LABEL VALUE": "Y"}
{"SEQUENCE ENTRY": "CGACATGTCCCGCTTCTTTCATTAATCCGTTAGAAACTGTTTTTCTATATACATTTACCTTTTAAGAGGAGGAAT", "LABEL VALUE": "Y"}
{"SEQUENCE ENTRY": "CGACATGTCCCGCTTCTTTCATTACTCCGTTAGCAACTGTTTTGCTATTTACATTTACCTTTTAAGAGGAGGAAT", "LABEL VALUE": "N"}
{"SEQUENCE ENTRY": "CGACATGTCCCGCTTCTTTCATTAATCCGTTAGCAACTGTTTTTCTATATACATTTACATTTTAAGAGGAGGAAT", "LABEL VALUE": "Y"}
{"SEQUENCE ENTRY": "CGACATGTCCCGCTTCTTTCATTATTCCGTTAGCAACTGTTTTGCTATATATATTTACCTTTTAAGAGGAGGAAT", "LABEL VALUE": "Y"}
{"SEQUENCE ENTRY": "CGACATGTCCCGCTTCTTTCATTAATCCGTGAGCAGCTGTTTTGCTATATACATTTACCTTTTAAGAGGAGGAAT", "LABEL VALUE": "N"}
{"SEQUENCE ENTRY": "CGACATGTCCCGCTTCTTTCATTAATCCGTTAGCAAATGTTTTGCTATATACATTTACATTTTAAGAGGAGGAAT", "LABEL VALUE": "Y"}
{"SEQUENCE ENTRY": "CGACATGTCCCGCTTCTTTCATTACTCCGTTAGCAACTGTTTTGCTATATACGTTTACCTTTTAAGAGGAGGAAT", "LABEL VALUE": "Y"}
{"SEQUENCE ENTRY": "CGACATGTCCCGCTTCTTTCATTAATCCGTTAGTAACTGTTTTGCTATATACATTTACCATTTAAGAGGAGGAAT", "LABEL VALUE": "Y"}
{"SEQUENCE ENTRY": "CGACATGTCCCGCTTCTTTCATTAATCTGTTAGCAACTGTTTTGCTATATACATCTACCTTTTAAGAGGAGGAAT", "LABEL VALUE": "Y"}
{"SEQUENCE ENTRY": "CGACATGTCCCGCTTCTTTCATTAATCCGTTAGCATCTGTTTTCCTATATACATTTACCTTTTAAGAGGAGGAAT", "LABEL VALUE": "Y"}
{"SEQUENCE ENTRY": "CGACATGTCCCGCTTCTTTCATTATTCCGTTAGCAACTGTGTTGCTATATACATTTACCTTTTAAGAGGAGGAAT", "LABEL VALUE": "Y"}

----------
tested on: Bacillus subtilis; assay: cleaved RNA product abundance (RNA/gDNA barcode ratio) relative to median wild-type variant (ratio to wild type); higher = more accumulation of the downstream cleavage product; conditions: experiment (reporter, strain, medium): exp 8a: truncated aprE reporter, strain BJT201 with 2% xylose (RNase J1 expressed); cleavage site: glnRA (positions -5 to +31 mutated)
Parameter threshold = 0.5. Response is 1.0 when cleaved RNA product abundance meets or exceeds it, else 0.0.

{"SEQUENCE ENTRY": "CGACATGTCCCGCTTCTTTCATTAATACGTTAGCAACTGTTTTGCTATATACATGTACCTTTTAAGAGGAGGAAT", "LABEL VALUE": 0.0}
{"SEQUENCE ENTRY": "CGACATGTCCCGCTTCTTTCATTAATCCGTTAGCAACTGTTTGGCTATATATATTTACCTTTTAAGAGGAGGAAT", "LABEL VALUE": 1.0}
{"SEQUENCE ENTRY": "CGACATGTCCCGCTTCTTTCATTAATCCGTTGGCAACTATTTTGCTATATACATTTACCTTTTAAGAGGAGGAAT", "LABEL VALUE": 1.0}
{"SEQUENCE ENTRY": "CGACATGTCCCGCTTCTTTCATTATTCCGTTAGCAACTGTTTTACTATATACATTTACCTTTTAAGAGGAGGAAT", "LABEL VALUE": 1.0}
{"SEQUENCE ENTRY": "CGACATGTCCCGCTTCTTTCATTAGTCCGTTAGCAACTGTTTTGATATATACATTTACCTTTTAAGAGGAGGAAT", "LABEL VALUE": 1.0}
{"SEQUENCE ENTRY": "CGACATGTCCCGCTTCTTTCATTAATCCGTTAGCAACTGATTTGCTAAATACATTTACCTTTTAAGAGGAGGAAT", "LABEL VALUE": 0.0}
{"SEQUENCE ENTRY": "CGACATGTCCCGCTTCTTTCATTAATTCGTTAGCAACTGTTTTGCTATATACATTTAACTTTTAAGAGGAGGAAT", "LABEL VALUE": 1.0}

----------
test system: Bacillus subtilis; test: cleaved RNA product abundance (RNA/gDNA barcode ratio) relative to median wild-type variant (ratio to wild type); higher = more accumulation of the downstream cleavage product; conditions: experiment (reporter, strain, medium): exp 8a: truncated aprE reporter, strain BJT201 with 2% xylose (RNase J1 expressed); cleavage site: glnRA (positions -5 to +31 mutated)
The following sequences are listed with their measured cleaved RNA product abundance values.

{"SEQUENCE ENTRY": "CGACATGTCCCGCTTCTTTCATTAATCCGTTAGCAACTGTTTTGATATTTACATTTACCTTTTAAGAGGAGGAAT", "cleaved RNA product abundance": 0.18}
{"SEQUENCE ENTRY": "CGACATGTCCCGCTTCTTTCATTAATCCGTTAGCAACTGTTTTGCTATAGACATTTACCTTTTAAGAGGAGGAAT", "cleaved RNA product abundance": 0.624}
{"SEQUENCE ENTRY": "CGACATGTCCCGCTTCTTTCATTAATCAGTTAGCAACTGTTTTGCTATATACATTTACCATTAAGAGGAGGAATT", "cleaved RNA product abundance": 1.4}
{"SEQUENCE ENTRY": "CGACATGTCCCGCTTCTTTCATTAATCCGTTAGCAACTGTTGTGCTAAATACATTTACCTTTTAAGAGGAGGAAT", "cleaved RNA product abundance": 0.266}
{"SEQUENCE ENTRY": "CGACATGTCCCGCTTCTTTCATTAATCCGTTAGCATCTGTTTTGCTATATACATATACCTTTTAAGAGGAGGAAT", "cleaved RNA product abundance": 0.727}
{"SEQUENCE ENTRY": "CGACATGTCCCGCTTCTTTCATTAATCCGTTAGCGACTGTTTAGCTATATACATTTACCTTTTAAGAGGAGGAAT", "cleaved RNA product abundance": 0.681}
{"SEQUENCE ENTRY": "CGACATGTCCCGCTTCTTTCATTAATCCTTTAGCAACTGTTTTGCTATATACATTTCCCTTTTAAGAGGAGGAAT", "cleaved RNA product abundance": 0.343}

----------
Recorded measurements of cleaved RNA product abundance, one per entry
test system: Bacillus subtilis; test: cleaved RNA product abundance (RNA/gDNA barcode ratio) relative to median wild-type variant (ratio to wild type); higher = more accumulation of the downstream cleavage product; details: experiment (reporter, strain, medium): exp 4a: truncated aprE reporter, strain BJT201 with 2% xylose (RNase J1 expressed); cleavage site: cggR-gapA (positions -7 to +36 mutated)

{"SEQUENCE ENTRY": "ACAGACGAAGGAGCCGCAAAGAAGTTAATAAGGGATTAATAATCCCTCAATATAAATATCTCTCACTTATTTAAA", "cleaved RNA product abundance": 0.313}
{"SEQUENCE ENTRY": "ACAGACGAAGGAGCCGCAAAGAAGTTATTAAGCGATGAATAATCCCTCAATATAAATATTTCTCACTTATTTAAA", "cleaved RNA product abundance": 0.171}
{"SEQUENCE ENTRY": "ACAGACGAAGGAGCCGCAAAGAAGTTATTAAGGGAAGAATAATCTCTCAATATAAATATCTCTCACTTATTTAAA", "cleaved RNA product abundance": 0.201}
{"SEQUENCE ENTRY": "ACAGACGAAGGAGCCGCAAAGAAGTTATTAAGGGATTAATAATCCCTCAATATAAATTTCTCTCACTTATTTAAA", "cleaved RNA product abundance": 0.57}
{"SEQUENCE ENTRY": "ACAGACGAAGGAGCCGCAAAGAAGTTAATAAGTGATGAATAATCCCTCAATATAAATATCTCTCACTTATTTAAA", "cleaved RNA product abundance": 0.129}
{"SEQUENCE ENTRY": "ACAGACGAAGGAGCCGCAAAGAAGCTATTAAGGGATGAATACTCCCTCAATATAAATATCTCTCACTTATTTAAA", "cleaved RNA product abundance": 0.458}
{"SEQUENCE ENTRY": "ACAGACGAAGGAGCCGCAAAGAAGTTATTAAGGTATGTATAATCCCTCAATATAAATATCTCTCACTTATTTAAA", "cleaved RNA product abundance": 0.127}
